Molecular target: Protein-cysteine N-palmitoyltransferase HHAT (Homo sapiens, UniProt Q5VTY9)
Sequence (Q5VTY9 whole entry): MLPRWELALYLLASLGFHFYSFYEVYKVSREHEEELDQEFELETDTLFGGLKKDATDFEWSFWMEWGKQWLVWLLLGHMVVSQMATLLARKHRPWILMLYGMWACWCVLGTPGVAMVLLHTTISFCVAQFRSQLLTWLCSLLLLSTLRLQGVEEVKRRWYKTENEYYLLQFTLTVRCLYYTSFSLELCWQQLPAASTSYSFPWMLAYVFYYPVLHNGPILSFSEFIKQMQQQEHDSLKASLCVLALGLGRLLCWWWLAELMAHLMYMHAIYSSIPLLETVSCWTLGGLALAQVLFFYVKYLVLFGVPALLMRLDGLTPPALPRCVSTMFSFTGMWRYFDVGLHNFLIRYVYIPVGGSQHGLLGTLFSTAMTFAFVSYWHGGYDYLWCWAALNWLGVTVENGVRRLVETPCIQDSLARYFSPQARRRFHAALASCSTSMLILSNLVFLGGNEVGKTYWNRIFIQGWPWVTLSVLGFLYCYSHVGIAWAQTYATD
Assay: Inhibition of HA/FLAG/His-tagged HHAT (unknown origin) expressed in 293FT cells assessed as enzyme-mediated sonic hedgehog palmitoylation incubated for 20 mins followed by [125I]iodo-palmitoyl CoA and Shh biotinylated peptide and measured after 1 hr by Scintillation proximity assay
Type: cell-based
readout.type: pIC50
// scale note: pIC50 = -log10(conc_M); give the bare number

Input: Return reported pIC50; argument: CCC(C)CNCC(=O)N1CCc2sccc2C1COc1cccc(C)c1 (stereo unspecified)
Output: 6.07
